Taken from ChEMBL document CHEMBL1201862.

Some compounds, each annotated with its measured GI50.
system: HCC 2998; test: NCI tumour cell line growth inhibition, 48 h
The source made the active and inactive calls. Cut-off read from the data, not from the text of the source: active = GI50 up to about 1.1 µM and inactive = higher.

[
  {
    "COMPOUND": "CC1CC[C@@]2(OC1)OC1C[C@H]3[C@@H]4CC[C@H]5CC(OC6OC(CO)C(O)C(OC7OC(CO)C(OC8OC(CO)C(O)C(OC9OC(CO)C(O)C(O)C9O)C8OC8OC(CO)C(O)C(O)C8O)C(O)C7O)C6O)[C@H](O)CC5(C)[C@H]4CCC3(C)C1[C@@H]2C (some centres undefined)",
    "GI50": "1.43 µM (inactive)"
  },
  {
    "COMPOUND": "CC(C)(C)OC(=O)C1=C(N)N(Cc2ccccc2)C2(C)C=CC(=O)C=C12 (centres undefined)",
    "GI50": "14.2 µM (inactive)"
  },
  {
    "COMPOUND": "CC(=O)c1ccc(-c2ccc(C(C)=O)s2)s1",
    "GI50": "> 100 µM (inactive)"
  },
  {
    "COMPOUND": "N#Cc1c(-c2ccccc2)cc(Nc2ccc(Cl)cc2)n2c1nc1ccccc12",
    "GI50": "3.78 µM (inactive)"
  }
]

----------
tested on: HCC 2998; experiment: NCI tumour cell line growth inhibition, 48 h
Active and inactive are the calls of the source. No stated cut-off is given here; in the data, active = GI50 up to about 1.1 µM and inactive = higher. Where a SMILES comes first, the peptide text is derived from it. The star is where a group is joined. Cbz = O=C(OCc1ccccc1)*; OBn = c1ccc(CO*)cc1
Possible outcomes: label 1 = active, label 0 = inactive

[
  {
    "COMPOUND": "O=c1cc(NNc2ccccc2)[nH]c(=S)[nH]1",
    "CLASSIFICATION": "label 0"
  },
  {
    "COMPOUND": "Cc1cc(-c2nc3cc(O)ccc3s2)ccc1N",
    "CLASSIFICATION": "label 0"
  },
  {
    "COMPOUND": "OCc1cccc(Nc2nc(O)c3[nH]cnc3n2)c1",
    "CLASSIFICATION": "label 0"
  },
  {
    "COMPOUND": "CCN(C(=S)N[C@H](C(=O)N[C@@H](C)C(=O)OC)C(C)C)c1ccccc1",
    "CLASSIFICATION": "label 0"
  },
  {
    "COMPOUND": "CCc1cccc(C)c1NC(=O)CCc1n[nH]c(=S)o1",
    "CLASSIFICATION": "label 0"
  },
  {
    "COMPOUND": "COC(=O)C(Cc1ccc(O)cc1)NC(=O)C(CC(=O)OCc1ccccc1)NC(=O)OCc1ccccc1 (centres undefined) (Cbz-Asp(OBn)-Tyr-OMe; configuration not given here)",
    "CLASSIFICATION": "label 0"
  },
  {
    "COMPOUND": "N/N=C(\\CCN1CCCC1)CC(c1ccccc1)c1c(O)c2ccccc2oc1=O (centres undefined)",
    "CLASSIFICATION": "label 0"
  },
  {
    "COMPOUND": "COc1cc2c(cc1O)N=C[C@@H]1CC[C@@H](O)N1C2=O.COc1cc2c(cc1O)N=C[C@@H]1CC[C@H](O)N1C2=O",
    "CLASSIFICATION": "label 1"
  },
  {
    "COMPOUND": "CS(=O)(=O)Oc1cccc(/C=N/N=C(\\N)NO)c1",
    "CLASSIFICATION": "label 0"
  },
  {
    "COMPOUND": "CCOC(=O)C(NC(=O)c1ccco1)(Nc1nc2ccc(OCC)cc2s1)C(F)(F)F (centres undefined)",
    "CLASSIFICATION": "label 0"
  },
  {
    "COMPOUND": "O=C1NC(=S)N(c2ccccc2)C1=O",
    "CLASSIFICATION": "label 0"
  },
  {
    "COMPOUND": "N=c1oc2ccccc2cc1C(=O)Nc1cccc2ccccc12",
    "CLASSIFICATION": "label 0"
  },
  {
    "COMPOUND": "N#CC1(C2CC(=O)N(c3ccccc3)C2=O)CCCCC1=O (centres undefined)",
    "CLASSIFICATION": "label 1"
  },
  {
    "COMPOUND": "CN(C)c1n/c(=N/c2ccc3ccccc3c2)ss1",
    "CLASSIFICATION": "label 0"
  }
]

----------
system: SF-539; assay: NCI tumour cell line growth inhibition, 48 h
The source made the active and inactive calls. Cut-off read from the data, not from the text of the source: active = GI50 up to about 1.1 µM and inactive = higher.
Possible outcomes: active, inactive

[
  {
    "MOLECULE": "CCCc1n[nH]c(CCC(=O)N(Cc2ccccc2)Cc2ccccc2)c1CC",
    "CLASSIFICATION": "inactive"
  },
  {
    "MOLECULE": "CNC(=O)C1(C#N)C(c2ccccc2)C(C#N)(C(=O)NC)C1c1ccccc1 (stereo not drawn)",
    "CLASSIFICATION": "inactive"
  },
  {
    "MOLECULE": "O=[N+]([O-])c1cccc(/C=N/C23CC4CC(CC(C4)C2)C3)c1",
    "CLASSIFICATION": "inactive"
  },
  {
    "MOLECULE": "O=c1c2ccccc2[nH]c(=S)n1-c1ccc(Br)cc1",
    "CLASSIFICATION": "inactive"
  },
  {
    "MOLECULE": "COc1ccc(NC(=O)CC2S/C(=N\\c3ccccc3C)NC2=O)c([N+](=O)[O-])c1 (stereo not drawn)",
    "CLASSIFICATION": "inactive"
  },
  {
    "MOLECULE": "COc1cc2c(cc1O)N=C[C@@H]1CC[C@@H](O)N1C2=O.COc1cc2c(cc1O)N=C[C@@H]1CC[C@H](O)N1C2=O",
    "CLASSIFICATION": "active"
  },
  {
    "MOLECULE": "C1=N\\CCN2CCN(CC/N=C\\c3ccccc3OCc3cccc(n3)COc3ccccc3/1)CC2",
    "CLASSIFICATION": "inactive"
  },
  {
    "MOLECULE": "O=C(/C=C\\c1ccccc1O)c1ccc(O)cc1O",
    "CLASSIFICATION": "inactive"
  },
  {
    "MOLECULE": "Cc1[nH]c2ccccc2c1/C=N/c1ccc(/N=C/c2c(C)[nH]c3ccccc23)cc1",
    "CLASSIFICATION": "inactive"
  },
  {
    "MOLECULE": "Cc1nnc(N/N=C2/C(=O)Nc3ccccc32)nc1O",
    "CLASSIFICATION": "inactive"
  },
  {
    "MOLECULE": "CC1=NN(C(=O)CC(=O)Nc2ccc(C)cc2)C(=O)C1/N=N\\c1ccc(S(=O)(=O)c2ccc(/N=N/C3C(=O)N(C(=O)CC(=O)Nc4ccc(C)cc4)N=C3C)cc2)cc1 (stereo not drawn)",
    "CLASSIFICATION": "inactive"
  },
  {
    "MOLECULE": "CN(C)/N=C1\\C=C2CC[C@H](O[Si](C)(C)C(C)(C)C)[C@@]2(C)CC1",
    "CLASSIFICATION": "inactive"
  },
  {
    "MOLECULE": "O=c1c(C(c2ccc(OCc3ccccc3)cc2)c2c(O)oc3ccccc3c2=O)c(O)oc2ccccc12",
    "CLASSIFICATION": "inactive"
  }
]

----------
Some compounds, each annotated with its measured GI50.
system: CAKI-1; experiment: NCI tumour cell line growth inhibition, 48 h
Active and inactive are the calls of the source. No stated cut-off is given here; in the data, active = GI50 up to about 1.1 µM and inactive = higher.

[
  {
    "COMPOUND": "CC(=O)c1ccc(NC(=O)C(=O)Nn2c(S)nc3ccccc3c2=O)cc1",
    "GI50": "> 100 µM (inactive)"
  },
  {
    "COMPOUND": "COc1cc(C(=O)N(C(=S)OCc2ccccn2)c2ccccc2)cc(OC)c1OC",
    "GI50": "44.7 µM (inactive)"
  },
  {
    "COMPOUND": "Oc1ccc2ccccc2c1NCn1nc(CCCCCCCCc2nn(CNc3c(O)ccc4ccccc34)c(=S)o2)oc1=S",
    "GI50": "> 100 µM (inactive)"
  },
  {
    "COMPOUND": "COc1ccc(CNC(=O)[C@H](Cc2ccc(O)cn2)NC(C)=O)cc1",
    "GI50": "> 100 µM (inactive)"
  },
  {
    "COMPOUND": "C=C1CC(Cn2cc(Br)c(=O)[nH]c2=O)(c2ccc(Br)cc2)OC1=O (stereo not given)",
    "GI50": "2.38 µM (inactive)"
  }
]

----------
Some compounds, each annotated with its measured GI50.
test system: MOLT-4; assay: NCI tumour cell line growth inhibition, 48 h
Activity calls are given as the source filed them. Cut-off read from the data, not from the text of the source: active = GI50 up to about 1.1 µM and inactive = higher.

[
  {
    "COMPOUND": "Cc1ccc2c(c1)SC(c1cc3c(cc1Br)OCO3)S2 (stereo not drawn)",
    "GI50": "31.4 µM (inactive)"
  },
  {
    "COMPOUND": "CN(C)c1ccc(/C=c2/c3ccccc3n3c2cc(NC(=O)NCCC[N+](C)(C)C)[n+]3C)cc1",
    "GI50": "> 100 µM (inactive)"
  },
  {
    "COMPOUND": "COc1ccc(/C=C/c2cc(OC)c(OC(C)=O)c(OC)c2)cc1",
    "GI50": "20.3 µM (inactive)"
  },
  {
    "COMPOUND": "CC1(C)OC(=O)CC12CCN(Cc1ccccc1)CC2",
    "GI50": "> 100 µM (inactive)"
  },
  {
    "COMPOUND": "CCOC(=O)c1[nH]c2cc(OC)c(OC)cc2c1CN(C)C",
    "GI50": "> 100 µM (inactive)"
  },
  {
    "COMPOUND": "Cc1cc(OCc2nnc3n2S(=O)(=O)c2ccccc2N3C)ccc1Cl",
    "GI50": "55 µM (inactive)"
  },
  {
    "COMPOUND": "O=c1c(C(c2ccc(OCc3ccccc3)cc2)c2c(O)oc3ccccc3c2=O)c(O)oc2ccccc12",
    "GI50": "37.3 µM (inactive)"
  },
  {
    "COMPOUND": "CN(C)CCCc1cccc2[nH]c3c(c12)CN(C)CC3",
    "GI50": "75 µM (inactive)"
  }
]
